# TARGET SYSTEM: Aurora kinase B (Homo sapiens) (UniProt Q96GD4);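 further: reported values are averaged percent inhibition of Aurora B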
# Sequence (Q96GD4 whole entry): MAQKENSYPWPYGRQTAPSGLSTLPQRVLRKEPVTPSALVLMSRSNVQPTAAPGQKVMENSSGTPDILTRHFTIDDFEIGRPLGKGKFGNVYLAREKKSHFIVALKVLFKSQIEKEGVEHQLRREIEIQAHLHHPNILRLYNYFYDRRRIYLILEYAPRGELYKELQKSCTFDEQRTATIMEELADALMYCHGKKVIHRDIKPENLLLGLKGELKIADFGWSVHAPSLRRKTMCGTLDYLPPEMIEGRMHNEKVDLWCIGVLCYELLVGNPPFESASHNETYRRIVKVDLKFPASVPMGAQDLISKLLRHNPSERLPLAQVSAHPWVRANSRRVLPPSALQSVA
# PROTOCOL CONDITIONS: at 0.1 µM
EXPERIMENTAL ENDPOINT: inhibition (%)
Answer format: numeric, % implied, no suffix.

Consider the worked cases shown below.
Input: Specify measured inhibition for Oc1cccc(-c2nc(-c3ccccc3)[nH]c2-c2ccncc2)c1 .
Output: 3.38

Input: Specify measured inhibition for C[C@@H](Oc1cc(-n2cnc3ccc(OCC4CCN(C)CC4)cc32)sc1C(N)=O)c1ccccc1C(F)(F)F .
Output: -2.46

Input: Specify measured inhibition for Nc1nccc(-c2c(-c3ccc(F)cc3)nn3cc(C(F)(F)F)ccc23)n1 .
Output: 1.38

Input: Specify measured inhibition for COc1cc(Nc2nccc(-c3cnn4ncccc34)n2)cc(OC)c1 .
Output: 20.5

Input: Specify measured inhibition for Cc1ccc(Nc2ccnc(Nc3cccc(C(N)=O)c3)n2)cc1O .
Output: 6.44

More entries:
Input: Specify measured inhibition for Nc1nccc(-c2c(-c3ccc(F)cc3)ncn2CCCN2CCOCC2)n1 .
Output: 2.68

Input: Specify measured inhibition for Cc1ccc(O)cc1Nc1ccnc2ccc(S(C)(=O)=O)cc12 .
Output: 2.16

###

# TARGET SYSTEM: Dual specificity protein kinase TTK (Homo sapiens) (UniProt P33981)
# Sequence (P33981 whole entry): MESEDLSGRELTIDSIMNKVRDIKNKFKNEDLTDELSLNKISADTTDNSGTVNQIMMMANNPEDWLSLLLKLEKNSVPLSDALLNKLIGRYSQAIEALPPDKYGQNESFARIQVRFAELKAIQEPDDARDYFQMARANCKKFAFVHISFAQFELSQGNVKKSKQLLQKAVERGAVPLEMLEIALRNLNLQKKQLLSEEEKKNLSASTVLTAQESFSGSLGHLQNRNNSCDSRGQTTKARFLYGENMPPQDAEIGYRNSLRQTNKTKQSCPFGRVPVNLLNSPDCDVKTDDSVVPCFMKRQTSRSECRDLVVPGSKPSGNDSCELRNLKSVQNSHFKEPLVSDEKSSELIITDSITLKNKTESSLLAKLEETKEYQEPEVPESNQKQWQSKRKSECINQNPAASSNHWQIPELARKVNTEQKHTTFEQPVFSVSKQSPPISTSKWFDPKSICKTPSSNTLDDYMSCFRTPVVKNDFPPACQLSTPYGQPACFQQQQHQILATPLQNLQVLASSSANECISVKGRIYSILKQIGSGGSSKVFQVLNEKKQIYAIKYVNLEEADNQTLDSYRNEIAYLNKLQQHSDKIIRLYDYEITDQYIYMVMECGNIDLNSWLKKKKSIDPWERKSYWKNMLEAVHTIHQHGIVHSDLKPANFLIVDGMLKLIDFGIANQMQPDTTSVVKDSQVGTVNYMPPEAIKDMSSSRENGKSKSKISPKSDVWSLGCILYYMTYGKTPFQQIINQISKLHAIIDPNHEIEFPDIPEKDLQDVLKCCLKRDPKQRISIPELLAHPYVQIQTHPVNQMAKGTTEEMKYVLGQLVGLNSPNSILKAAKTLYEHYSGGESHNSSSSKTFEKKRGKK
# PROTOCOL CONDITIONS: at 0.1 µM
# Description: GSK_PKIS: TTK mean inhibition at 0.1 uM [Nanosyn]
EXPERIMENTAL ENDPOINT: inhibition
Please state the value followed by its unit.

Consider the worked cases shown below.
Input: Specify measured inhibition for Cc1ccc2c(c1)/C(=N/Nc1ccc(S(N)(=O)=O)cc1)C(=O)N2 .
Output: 7.53%

Input: Specify measured inhibition for CCn1c(-c2nonc2N)nc2ccc(F)cc21 .
Output: 12.1%

Input: Specify measured inhibition for CCOc1nccc2c1nc(-c1nonc1N)n2CC .
Output: 7.47%

Input: Specify measured inhibition for CCS(=O)(=O)c1ccc(OC)c(Nc2ncc(-c3cccc(OC)c3)o2)c1 .
Output: 2.75%

Input: Specify measured inhibition for COc1cc2ncnc(Nc3ccc4c(cnn4Cc4ccccc4)c3)c2cc1OC .
Output: 10.4%

Input: Specify measured inhibition for CN(c1ccc(NC(=O)Nc2ccc(OC(F)(F)F)cc2)cc1)c1ccnc(Nc2cccc(S(N)(=O)=O)c2)n1 .
Output: 4.18%

More entries:
Input: Specify measured inhibition for N#Cc1cccc(Nc2nccc(-c3cnn4ncccc34)n2)c1 .
Output: 11.2%

Input: Specify measured inhibition for CCn1c(-c2nonc2N)nc2c(C#CC(C)(C)O)nc(OCCNC)cc21 .
Output: 7.19%

Input: Specify measured inhibition for COC(=O)c1ccc2c(c1)C(=Cc1cc(Br)c(O)c(Br)c1)C(=O)N2 .
Output: 13.3%

Input: Specify measured inhibition for COc1cc2ncn(-c3cc(OCc4ccccc4S(C)(=O)=O)c(C#N)s3)c2cc1OC .
Output: 5.84%

Input: Specify measured inhibition for COc1cc(/C=N/Nc2ncnc3c2cnn3C(C)C)ccc1O .
Output: 4.56%

###

# TARGET SYSTEM: Platelet-derived growth factor receptor alpha (Homo sapiens) (UniProt P16234)
# Sequence (P16234 whole entry): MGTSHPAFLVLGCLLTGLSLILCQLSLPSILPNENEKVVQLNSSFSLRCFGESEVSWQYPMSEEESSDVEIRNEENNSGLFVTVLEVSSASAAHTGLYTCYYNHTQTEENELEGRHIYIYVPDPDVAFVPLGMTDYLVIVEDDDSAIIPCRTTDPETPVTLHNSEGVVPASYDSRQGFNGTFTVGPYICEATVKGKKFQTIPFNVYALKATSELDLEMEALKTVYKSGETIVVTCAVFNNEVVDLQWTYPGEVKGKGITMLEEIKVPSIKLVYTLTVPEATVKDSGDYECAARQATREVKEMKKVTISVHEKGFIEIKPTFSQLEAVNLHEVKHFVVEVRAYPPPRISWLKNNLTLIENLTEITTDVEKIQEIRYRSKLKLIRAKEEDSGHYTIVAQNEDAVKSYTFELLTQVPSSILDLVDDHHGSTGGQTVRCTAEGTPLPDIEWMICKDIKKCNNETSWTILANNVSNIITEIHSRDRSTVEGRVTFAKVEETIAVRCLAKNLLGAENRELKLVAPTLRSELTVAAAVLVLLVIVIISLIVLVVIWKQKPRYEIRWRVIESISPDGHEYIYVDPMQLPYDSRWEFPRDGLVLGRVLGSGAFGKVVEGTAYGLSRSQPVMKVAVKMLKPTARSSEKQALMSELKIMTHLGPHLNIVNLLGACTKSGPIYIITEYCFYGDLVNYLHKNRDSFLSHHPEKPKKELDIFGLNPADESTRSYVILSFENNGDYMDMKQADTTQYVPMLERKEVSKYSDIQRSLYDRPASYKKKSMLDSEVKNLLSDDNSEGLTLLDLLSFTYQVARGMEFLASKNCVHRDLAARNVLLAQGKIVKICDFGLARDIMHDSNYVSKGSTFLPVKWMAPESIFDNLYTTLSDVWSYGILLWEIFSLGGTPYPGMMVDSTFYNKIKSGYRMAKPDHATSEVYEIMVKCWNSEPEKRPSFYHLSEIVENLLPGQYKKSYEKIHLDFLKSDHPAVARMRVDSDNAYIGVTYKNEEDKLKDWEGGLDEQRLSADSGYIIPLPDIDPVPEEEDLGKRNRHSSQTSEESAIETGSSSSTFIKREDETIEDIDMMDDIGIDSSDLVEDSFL
# PROTOCOL CONDITIONS: at 0.1 µM
# Description: GSK_PKIS: PDGFRA mean inhibition at 0.1 uM [Nanosyn]
# inhibition listing for each entry below
Answer format: numeric, % implied, no suffix.

Input: Specify measured inhibition for COC(=O)c1cncc(/C=C/c2c(C)cc(O)cc2C)c1 .
Output: 14.8

More entries:
Input: Specify measured inhibition for Oc1cccc(-c2nc(-c3ccccc3)[nH]c2-c2ccncc2)c1 .
Output: 8.99

Input: Specify measured inhibition for CCn1c(-c2nonc2N)nc2ccc(F)cc21 .
Output: 9.43

Input: Specify measured inhibition for O=C1Nc2ccc(-c3cccnc3)cc2C1=Cc1cc(Br)c(O)c(Br)c1 .
Output: 10.2

Input: Specify measured inhibition for NS(=O)(=O)c1ccc(Nc2cc(-c3cccc(O)c3)n[nH]2)cc1 .
Output: 16.7

Input: Specify measured inhibition for COc1ccc(-c2nn3ncccc3c2-c2ccnc(Nc3cccc(C(F)(F)F)c3)n2)cc1 .
Output: 1

Input: Specify measured inhibition for C[C@@H](Oc1cc(-n2cnc3ccc(OC[C@@H](O)CO)cc32)sc1C(N)=O)c1ccccc1Cl .
Output: 13.8

Input: Specify measured inhibition for CCS(=O)(=O)c1ccc(OC)c(Nc2ncc(-c3cccc(OC)c3)o2)c1 .
Output: 23.5

Input: Specify measured inhibition for NS(=O)(=O)c1cccc(Nc2cc(-c3ccc(F)cc3)n[nH]2)c1 .
Output: 12.7

###

# inhibition listing for each entry below
# Tested on: Platelet-derived growth factor receptor alpha (Homo sapiens), P16234 [T674I]
# Sequence (P16234 whole entry T674I): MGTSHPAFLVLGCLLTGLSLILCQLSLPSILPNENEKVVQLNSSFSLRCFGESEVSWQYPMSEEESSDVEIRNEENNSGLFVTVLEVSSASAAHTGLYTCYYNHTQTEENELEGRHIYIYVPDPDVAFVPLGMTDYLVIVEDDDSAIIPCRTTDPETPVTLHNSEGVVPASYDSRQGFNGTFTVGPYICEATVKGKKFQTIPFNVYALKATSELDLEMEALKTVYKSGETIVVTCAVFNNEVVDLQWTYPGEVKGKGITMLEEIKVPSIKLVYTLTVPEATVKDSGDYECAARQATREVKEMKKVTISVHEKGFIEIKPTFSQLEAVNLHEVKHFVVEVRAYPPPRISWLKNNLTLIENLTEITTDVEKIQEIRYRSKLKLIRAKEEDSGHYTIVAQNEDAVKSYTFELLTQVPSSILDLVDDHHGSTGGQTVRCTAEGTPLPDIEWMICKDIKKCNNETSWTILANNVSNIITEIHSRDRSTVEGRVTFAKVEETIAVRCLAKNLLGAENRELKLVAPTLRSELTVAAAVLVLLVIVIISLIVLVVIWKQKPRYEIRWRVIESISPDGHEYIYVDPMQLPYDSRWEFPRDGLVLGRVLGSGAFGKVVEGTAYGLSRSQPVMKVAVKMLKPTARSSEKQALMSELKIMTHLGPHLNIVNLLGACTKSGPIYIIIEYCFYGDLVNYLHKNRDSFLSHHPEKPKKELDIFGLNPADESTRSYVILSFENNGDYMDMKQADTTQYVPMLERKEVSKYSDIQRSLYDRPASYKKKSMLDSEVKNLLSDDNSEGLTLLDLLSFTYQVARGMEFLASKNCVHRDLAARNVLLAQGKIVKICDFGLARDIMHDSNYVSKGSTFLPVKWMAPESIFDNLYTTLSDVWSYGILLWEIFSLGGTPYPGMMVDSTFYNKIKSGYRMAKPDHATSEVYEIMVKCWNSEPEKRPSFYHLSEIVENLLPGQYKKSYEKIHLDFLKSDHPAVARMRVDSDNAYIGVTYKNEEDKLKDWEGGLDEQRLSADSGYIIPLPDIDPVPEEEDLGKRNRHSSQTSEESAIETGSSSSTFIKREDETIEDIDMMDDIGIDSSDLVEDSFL
# PROTOCOL CONDITIONS: at 1 µM
Answer format: numeric, % implied, no suffix.

Input: Specify measured inhibition for COC(=O)c1ccc2c(c1)C(=Cc1cc(Br)c(O)c(Br)c1)C(=O)N2 .
Output: 3.91

Input: Specify measured inhibition for COc1cc(Nc2nccc(-c3cnn4ncccc34)n2)cc(OC)c1 .
Output: 91.9

Input: Specify measured inhibition for NC(=O)c1sc(-n2cnc3ccccc32)cc1OCc1ccccc1Br .
Output: 5.25

Input: Specify measured inhibition for COC(=O)Nc1nc2cc(Oc3ccc(NC(=O)Nc4cccc(Br)c4)cc3)ccc2[nH]1 .
Output: 98.1

Input: Specify measured inhibition for Oc1cccc(-c2nc(-c3ccccc3)[nH]c2-c2ccncc2)c1 .
Output: 5.18

More entries:
Input: Specify measured inhibition for Cc1cc(-c2ccccn2)cc(C)c1/C=C/c1cncc(-c2nn[nH]n2)c1 .
Output: 8.72

Input: Specify measured inhibition for N#Cc1cccc(Nc2nccc(-c3cnn4ncccc34)n2)c1 .
Output: 60.5

Input: Specify measured inhibition for NS(=O)(=O)c1ccc(N/N=C2\C(=O)Nc3ccc(Cl)cc32)cc1 .
Output: 62.9

Input: Specify measured inhibition for COc1cccc(-n2ncc3c(N/N=C/c4ccc(S(C)(=O)=O)cc4)ncnc32)c1 .
Output: 80.5

Input: Specify measured inhibition for OCc1ccc(-c2nc(-c3ccccn3)c(-c3ccc4c(c3)OCO4)[nH]2)cc1 .
Output: 6.47

###

# TARGET SYSTEM: Phosphatidylinositol 4-kinase beta (Homo sapiens) (UniProt Q9UBF8);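 further: values are mean percent inhibition of PI4K-beta activity, averaged over replicate measurements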
# Sequence (Q9UBF8 2-816 limits assumed): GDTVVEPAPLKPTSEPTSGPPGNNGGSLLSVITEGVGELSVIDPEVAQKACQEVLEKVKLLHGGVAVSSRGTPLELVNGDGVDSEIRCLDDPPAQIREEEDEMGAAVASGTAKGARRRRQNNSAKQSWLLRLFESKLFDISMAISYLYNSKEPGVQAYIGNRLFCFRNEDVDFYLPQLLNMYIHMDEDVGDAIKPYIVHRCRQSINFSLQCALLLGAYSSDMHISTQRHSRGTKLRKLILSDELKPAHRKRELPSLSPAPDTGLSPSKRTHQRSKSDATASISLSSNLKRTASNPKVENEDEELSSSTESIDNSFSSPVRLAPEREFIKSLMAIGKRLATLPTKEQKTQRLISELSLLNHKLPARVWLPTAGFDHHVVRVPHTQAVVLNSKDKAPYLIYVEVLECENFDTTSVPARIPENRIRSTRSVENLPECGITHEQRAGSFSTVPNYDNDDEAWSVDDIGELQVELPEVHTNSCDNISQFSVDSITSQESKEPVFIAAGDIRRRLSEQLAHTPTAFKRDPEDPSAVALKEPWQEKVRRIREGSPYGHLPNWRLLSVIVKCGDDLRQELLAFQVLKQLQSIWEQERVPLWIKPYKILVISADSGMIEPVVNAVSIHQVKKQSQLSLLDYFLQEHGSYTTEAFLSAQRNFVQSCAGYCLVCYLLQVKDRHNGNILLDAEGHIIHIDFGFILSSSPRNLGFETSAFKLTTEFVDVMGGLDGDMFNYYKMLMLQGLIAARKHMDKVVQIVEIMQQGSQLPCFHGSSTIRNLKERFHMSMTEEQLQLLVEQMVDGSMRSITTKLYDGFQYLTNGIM
# PROTOCOL CONDITIONS: at 1 µM
EXPERIMENTAL ENDPOINT: inhibition (%)
Answer format: numeric, % implied, no suffix.

Consider the worked cases shown below.
Input: Specify measured inhibition for N#Cc1cccc(Nc2nccc(-c3cnn4ncccc34)n2)c1 .
Output: 14.8

Input: Specify measured inhibition for COC(=O)c1cncc(/C=C/c2c(C)cc(O)cc2C)c1 .
Output: 0.11

Input: Specify measured inhibition for NS(=O)(=O)c1ccc(-c2cc3ccncc3cc2OCc2ccccc2)cc1 .
Output: 0.15

Input: Specify measured inhibition for COc1cccc(-n2ncc3c(N/N=C/c4ccc(C)cc4)ncnc32)c1 .
Output: 3.16

Input: Specify measured inhibition for Cc1cc(-c2ccccn2)cc(C)c1/C=C/c1cncc(-c2nn[nH]n2)c1 .
Output: 0.81

Kindly review the next compound as well.
Input: Specify measured inhibition for NS(=O)(=O)c1ccc(Nc2cc(-c3cccc(O)c3)n[nH]2)cc1 .
Output: -1.14

###

# TARGET SYSTEM: Tyrosine-protein kinase ZAP-70 (Homo sapiens);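 further: values are mean percent inhibition of ZAP-70 kinase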
# PROTOCOL CONDITIONS: at 0.1 µM
EXPERIMENTAL ENDPOINT: inhibition (%)
Answer format: numeric, % implied, no suffix.

Consider the worked cases shown below.
Input: Specify measured inhibition for CCn1c(-c2nonc2N)nc2ccc(F)cc21 .
Output: 3.33

Input: Specify measured inhibition for CCOc1nccc2c1nc(-c1nonc1N)n2CC .
Output: 2.73

Input: Specify measured inhibition for COc1cccc(-n2nc(C)c3c(N/N=C(\C)c4ccncc4)ncnc32)c1 .
Output: 0.82

Input: Specify measured inhibition for COc1cc(Nc2nccc(-c3cnn4ncccc34)n2)cc(OC)c1 .
Output: 4.5

Input: Specify measured inhibition for Cc1ccc2c(-c3ccnc(Nc4ccc5c(c4)OCCO5)n3)c(-c3ccc(C(F)(F)F)cc3)nn2n1 .
Output: -2.2

Kindly review the next compound as well.
Input: Specify measured inhibition for CCCN1CCCC(c2ccc(Nc3nc(Nc4cc(F)ccc4C(N)=O)c4cc[nH]c4n3)c(OC)c2)C1 (stereo not drawn) .
Output: 7.83

###

# TARGET SYSTEM: Cyclin-dependent kinase 6 (Homo sapiens) (UniProt Q00534);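 further: mean percent inhibition of CDK6 complexed with cyclin D3, from the GSK PKIS kinase inhibitor screen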
# Sequence (Q00534 whole entry): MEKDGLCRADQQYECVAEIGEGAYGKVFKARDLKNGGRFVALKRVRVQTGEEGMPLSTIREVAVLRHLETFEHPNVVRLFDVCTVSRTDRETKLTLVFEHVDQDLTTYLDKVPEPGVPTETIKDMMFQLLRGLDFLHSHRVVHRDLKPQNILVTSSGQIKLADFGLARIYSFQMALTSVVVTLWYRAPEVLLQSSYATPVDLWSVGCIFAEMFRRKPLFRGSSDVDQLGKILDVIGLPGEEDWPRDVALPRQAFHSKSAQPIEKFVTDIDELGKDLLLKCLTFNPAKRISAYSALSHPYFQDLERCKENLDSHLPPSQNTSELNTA
# PROTOCOL CONDITIONS: at 0.1 µM
# inhibition listing for each entry below
Answer format: numeric, % implied, no suffix.

Consider the worked cases shown below.
Input: Specify measured inhibition for COC(=O)c1cncc(/C=C/c2c(C)cc(O)cc2C)c1 .
Output: 4.33

Input: Specify measured inhibition for C[C@@H](Oc1cc(-n2cnc3ccc(OC[C@@H](O)CO)cc32)sc1C(N)=O)c1ccccc1Cl .
Output: -1.79

Input: Specify measured inhibition for NC(=O)c1sc(-n2cnc3ccccc32)cc1OCc1ccccc1Br .
Output: -3.6

Input: Specify measured inhibition for CN(C)c1cc2c(Nc3ccc4c(cnn4Cc4ccccc4)c3)ncnc2cn1 .
Output: -3.6

Input: Specify measured inhibition for CC(C)c1ccc(Nc2nccc(-c3cnn4ncccc34)n2)cc1 .
Output: 3.4

Input: Specify measured inhibition for NS(=O)(=O)c1ccc(-c2cc3ccncc3cc2OCc2ccccc2)cc1 .
Output: 3.37

Input: Specify measured inhibition for CCn1c(-c2nonc2N)nc2c(C#CC(C)(C)O)nc(OCCNC)cc21 .
Output: -0.39

Input: Specify measured inhibition for CC(C)c1ccc2c(c1)NC(=O)/C2=N/Nc1ccc(S(N)(=O)=O)cc1 .
Output: 3.38

Input: Specify measured inhibition for Cc1ccc2c(-c3ccnc(Nc4ccc5c(c4)OCCO5)n3)c(-c3ccc(C(F)(F)F)cc3)nn2n1 .
Output: -0.74

Input: Specify measured inhibition for c1ccc(Nc2ncc(-c3ccccc3)o2)cc1 .
Output: 2.71

More entries:
Input: Specify measured inhibition for CN1CCN(C(=O)c2ccc(NC(=O)Nc3ccc(N(C)c4ccnc(Nc5ccc(CS(C)(=O)=O)cc5)n4)cc3)cc2)CC1 .
Output: -6.28

Input: Specify measured inhibition for Cc1ccc(Nc2ccnc(Nc3cccc(C(N)=O)c3)n2)cc1O .
Output: -1.97

Input: Specify measured inhibition for Cc1nc(-c2ccccc2)n2nc(NCCCN3CCOCC3)ncc12 .
Output: 13.8

Input: Specify measured inhibition for Nc1nccc(-c2c(-c3ccc(F)cc3)nn3cc(C(F)(F)F)ccc23)n1 .
Output: -0.93

Input: Specify measured inhibition for NC(=O)c1cccc(Nc2nccc(Nc3cccc(F)c3)n2)c1 .
Output: -1.89
